# Test system: RPMI-8226 leukemia
# protocol-description: NCI tumour cell line growth inhibition, 48 h
readout-name: TGI (µM)
Lab book: enter the figure in µM, no units written.

Example entries and their recorded answers appear below.
COc1cc(NC(C)CCCN)c2nccc(C)c2c1OC (configuration not stated) = 23.2
O=S(O)CCCCSSCc1ccccc1CSSCCCCS(=O)O = 45.8
Cc1sc2nc(NCCc3c[nH]c4ccc(Cl)cc34)[nH]c(=O)c2c1C = 7.9

Consider now this further compound.
INPUT: Suppose we examine the compound O=c1[nH]c2cc(Cl)ccc2n1C1CCN(CCCC(c2ccc(F)cc2)c2ccc(F)cc2)CC1 ; what TGI value has been reported?
OUTPUT: 3.6

Value source: PubChem BioAssay (NCI)
